Experiment: Stability of the compound in pH 7.1 buffer assessed as parent compound remaining measured after 60 mins at 124 degC
Format: physicochemical
Settings: read-out: Stability
measured_quantity: remaining at 1 h
The reply should consist of the numeric value with the unit placed after it.

Prompt: State the recorded remaining at 1 h for this entry: Cc1noc(C)c1Cn1cc(N2C(=O)CN(Cc3cccc(O)c3)C2=O)cn1
Response: 89%

* * *

Test: Maternal toxicity in po dosed Sprague-Dawley rat administered via gavage during gestation period
Type: ADME, organism-based
Conditions: female, in vivo
measured_quantity: NOAEL (mg/kg)
Answers are plain numbers, in mg/kg.

Prompt: Could you tell me which NOAEL is on file for Cc1noc(C)c1Cn1cc(N2C(=O)CN(Cc3cccc(O)c3)C2=O)cn1 ?
Response: 1000
